Experiment: Rat group tissue distribution test
Assay type: in vivo, SD male rats
Details: male, Sprague Dawley, rat, oral; Plasma, 4 h, intragastric, SD rats, n = 3; read-out: Average drug concentration
Property Name: concentration at 4 h (nM)

1 = O=c1[nH]ncc(N2CCc3c(nc(CO)nc3Sc3ccc(F)cc3C(F)(F)F)C2)c1Cl
2 = Nc1nc2c(c(Sc3ccc(F)cc3C(F)(F)F)n1)CCN(c1cn[nH]c(=O)c1Cl)C2
API: POST /compare with 1 and 2 ; response names the item with higher concentration at 4 h. Lab note: record the label of whichever item you select.
1

From: patent US20250122190A1
